test.details: binders from COS7 lysate, DM2A8 probe, primary screen, torsin A project, cell lysate, small-molecule microarray, fluorescence 635/667 (AID 1065)
assay.context: higher = more signal, COS7 lysate expressing mutant human TOR1A
property.name: composite z-score

Examples with their reported composite z-score follow.
[
  {
    "molecule": "Cc1ccc([C@H]2C(C(=O)O)=C[C@@H](C(C)(C)C)N2S(=O)(=O)c2ccc(C)cc2)cc1",
    "composite z-score": -0.0985
  },
  {
    "molecule": "C=CCC(OC(C)=O)[C@@H]1[C@@H](N(Cc2ccc(-c3ccccc3)cc2)C(=O)Cc2ccc(F)cc2)c2cc(OCCCO)ccc2N1C(=O)Cc1ccc2ccccc2c1 (stereo not given in full)",
    "composite z-score": -0.286
  },
  {
    "molecule": "CO[C@H]1O[C@H](CO)[C@@H](OC(=O)Nc2cccc(F)c2)[C@H](OC(=O)Nc2ccccc2-c2ccccc2)[C@H]1OC(=O)Nc1ccccc1-c1ccccc1",
    "composite z-score": 0.368
  },
  {
    "molecule": "CN(C)C(=O)[C@]1(CCS(=O)(=O)c2ccccc2)N=C(c2ccc(OCCCO)cc2)O[C@@H]1c1ccccc1",
    "composite z-score": 0.398
  },
  {
    "molecule": "[N-]=[N+]=Nc1ccccc1[C@@H]1OC(c2ccc(OCCCO)cc2)=N[C@]1(Cc1ccccc1)C(=O)NCc1ccccc1",
    "composite z-score": 1.72
  }
]

INPUT: What does the record list as composite z-score for C=CCC(OC(C)=O)[C@@H]1[C@@H](N(Cc2cccc3ccccc23)C(=O)c2cccc3ccccc23)c2cc(OCCCO)ccc2N1C(=O)c1ccc2ccccc2c1 (stereo not given in full) ?
OUTPUT: -0.124

INPUT: What does the record list as composite z-score for COCCOC(=O)N1C(=O)[C@@]2(c3cc(C#CCNC(N)=O)ccc31)[C@H](c1ccc(O)cc1)N1[C@H](c3ccccc3)[C@H](c3ccccc3)OC(=O)[C@H]1[C@@H]2C(=O)N1CCN(c2ncccn2)CC1 ?
OUTPUT: 0.594

INPUT: What does the record list as composite z-score for CC(C)[Si]1(C(C)C)OCc2cc(-c3ccc(-c4ccc(Cl)c(Cl)c4)o3)nc(CCc3ccccc3)c21 ?
OUTPUT: -0.217

INPUT: What does the record list as composite z-score for Cc1nc2cc(Br)ccc2c(=O)n1Cc1cccc(O)c1 ?
OUTPUT: 0.116

INPUT: What does the record list as composite z-score for CCCCCCCCCCC(O)C1C=CC2C(=O)N(C)C(=O)C2N1Nc1cc(OC)c(OC)c(OC)c1 (stereo not given) ?
OUTPUT: -0.157
